# credit: ChEMBL document CHEMBL5058577

Test system: HEK-293T
Assay: Multiplex assay against HEK293T
Type: toxicity, cell-based
Conditions: human, 48 h, 1 µM, compound concentration 1 uM, replicate 1
Cut-off 2% on Population Hoechst High Intensity Objects (%), inclusive. At or above means t; below means f.

compound	labelValue
CC(C)(C)c1cc(NC(=O)Nc2ccc(-c3cn4c(n3)sc3cc(OCCN5CCOCC5)ccc34)cc2)no1	t
CCCCCC(O)/C=C/[C@H]1C(=O)CC(O)C1C/C=C\CCCC(=O)O (stereo partly specified)	f
O=C(NCCN1CCC(n2c(=O)[nH]c3cc(Cl)ccc32)CC1)c1ccc(F)cc1 [HALOPEMIDE]	f
Cl.NCCc1ccc(O)c(O)c1 [DOPAMINE HYDROCHLORIDE]	t
CN(C)C(=O)Cn1cc(-c2ccc(-c3cncc4ccccc34)cc2)cn1	t
CC(=O)Nc1cccc2c1c(Sc1ccc(Cl)cc1)c(C)n2CC(=O)O	f
CN[C@@H](C)C(=O)N[C@H](C(=O)N1CCC[C@H]1C(=O)Nc1snnc1-c1ccccc1)C1CCCCC1	t
N#Cc1cc(F)cc(-c2nc(-c3ccc(F)cn3)no2)c1	f
CCCCC1=NC2(CCCC2)C(=O)N1Cc1ccc(-c2ccccc2-c2nnn[nH]2)cc1	t
Cc1c(CC(=O)O)c2cccnc2n1Cc1ccc(S(C)(=O)=O)cc1C(F)(F)F	f
C[C@H](N)COC(=O)[C@@H](CCCCN)NC(=O)Cc1c(-c2ccc3ccccc3c2)[nH]c2c1ccc1ccccc12	t
Br.CS(=O)(=O)Nc1c(O)ccc2c1CCCC2C1=NCCN1 (stereo unspecified)	t
NCCc1cn(S(=O)(=O)c2c(Cl)nc3sccn23)c2ccccc12.O=C(O)C(=O)O	t
O=C1[C@H](Cc2ccc(O)cc2)N2C(=O)CCN(C(=O)NCc3ccccc3)[C@H]2CN1Cc1cccc2ccccc12	t
Cc1cnc(-c2cc(N3CCN(C(=O)CCS(C)(=O)=O)CC3)ncc2Cl)c(C)c1	f
N#Cc1c(Oc2cccc(OS(=O)(=O)CCCC(F)(F)F)c2)cccc1C(F)(F)F	f
